# Organism: Rattus norvegicus
# test-method-notes: Dose-dependent inhibition of calcium contraction in depolarized rat aortic strips.
# Type: functional, organism-based
# experimental-conditions: Aorta
pIC50: −log10 of the molar value.
measurement-kind: pIC50

Please look at this molecule and report its pIC50: `CCOC(=O)[C@H]1[C@H]2/C(=C(\O)OCC)C(C)=N[C@]1(C)Sc1cc([N+](=O)[O-])ccc12`
< 4.00
